Molecular target: human CD33 G256A (human, UniProt P20138 18-364)
Sequence (P20138 18-364 G256A limits assumed): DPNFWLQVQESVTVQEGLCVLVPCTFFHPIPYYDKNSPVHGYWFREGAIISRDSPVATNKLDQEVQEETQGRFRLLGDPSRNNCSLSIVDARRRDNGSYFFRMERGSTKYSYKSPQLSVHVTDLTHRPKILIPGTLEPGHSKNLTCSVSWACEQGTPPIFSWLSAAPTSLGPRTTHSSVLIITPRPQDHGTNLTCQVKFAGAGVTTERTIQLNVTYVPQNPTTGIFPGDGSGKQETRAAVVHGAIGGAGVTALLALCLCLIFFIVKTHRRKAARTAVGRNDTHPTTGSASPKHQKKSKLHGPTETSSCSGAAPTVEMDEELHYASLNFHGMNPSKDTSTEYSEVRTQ
Test: alanine scan, flow cytometry, HEK293-T;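 further: antibody binding to each alanine-substituted CD33 mutant expressed transiently in HEK293-T, read as fluorescence minus background, mean of duplicates, relative to wild-type CD33 set as 100%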
RECORDED_ENDPOINT: Mean % WT Binding (% WT binding)
Give the number; % WT binding is assumed, so skip it.

Q) Report measured Mean % WT Binding; entry is Refmab #3 (antibody, V domains shown, The alanine scan used IgG or Fab) VH: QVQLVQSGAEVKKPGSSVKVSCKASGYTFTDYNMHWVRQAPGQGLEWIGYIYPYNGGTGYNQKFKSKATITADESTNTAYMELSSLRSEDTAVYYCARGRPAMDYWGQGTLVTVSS VL: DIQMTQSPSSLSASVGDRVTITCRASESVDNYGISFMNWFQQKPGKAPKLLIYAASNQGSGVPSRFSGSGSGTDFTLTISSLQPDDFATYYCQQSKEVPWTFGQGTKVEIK
A) 94.9

Q) Report measured Mean % WT Binding; entry is Refmab #2 (antibody, V domains shown, The alanine scan used IgG or Fab) VH: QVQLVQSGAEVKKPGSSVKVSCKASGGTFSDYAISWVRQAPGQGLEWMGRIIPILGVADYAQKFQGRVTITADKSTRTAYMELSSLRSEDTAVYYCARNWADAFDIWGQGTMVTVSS VL: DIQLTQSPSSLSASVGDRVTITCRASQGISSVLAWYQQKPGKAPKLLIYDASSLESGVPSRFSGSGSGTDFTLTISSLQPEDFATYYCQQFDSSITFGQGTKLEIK
A) 117

Q) Report measured Mean % WT Binding; entry is Refmab #1 (antibody, V domains shown, The alanine scan used IgG or Fab; also called hP67.6) VH: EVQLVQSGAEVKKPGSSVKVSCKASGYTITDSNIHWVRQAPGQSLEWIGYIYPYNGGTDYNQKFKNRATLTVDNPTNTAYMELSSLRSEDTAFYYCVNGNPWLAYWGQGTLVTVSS VL: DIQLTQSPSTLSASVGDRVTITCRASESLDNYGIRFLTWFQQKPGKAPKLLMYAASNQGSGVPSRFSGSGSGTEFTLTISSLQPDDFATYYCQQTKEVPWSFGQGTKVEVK
A) 89.8

Q) Report measured Mean % WT Binding; entry is Refmab #4 (antibody, V domains shown, The alanine scan used IgG or Fab) VH: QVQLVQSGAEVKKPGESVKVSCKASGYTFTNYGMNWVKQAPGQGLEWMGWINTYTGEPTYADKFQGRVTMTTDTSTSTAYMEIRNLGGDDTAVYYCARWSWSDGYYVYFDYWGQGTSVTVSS VL: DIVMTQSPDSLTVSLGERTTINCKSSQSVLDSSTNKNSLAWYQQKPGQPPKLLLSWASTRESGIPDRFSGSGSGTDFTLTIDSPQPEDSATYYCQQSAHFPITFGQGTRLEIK
A) 104

Recorded values, source patent US20260242735A1.
